The values you see were collected from patent US5384411A.

Assay: pKa and color change with pH of carboxy-phenolphthaleins bound to Sepharose 4B
Format: physicochemical
Details: dye bound to Sepharose 4B
Recorded pKa by entry
quantity kind: pKa

INSERT INTO assay_data (compound, measured_result) VALUES
  ('O=C(O)c1ccc2c(c1)C(=O)OC2(c1cc(O)c(O)cc1[N+](=O)[O-])c1cc(O)c(O)cc1[N+](=O)[O-] [Example 4J]', '~ 6'),
  ('O=C(O)c1ccc2c(c1)C(=O)OC2(c1ccc(O)cc1)c1ccc(O)cc1 [Example 4A]', 10),
  ('O=C(O)c1ccc2c(c1)C(=O)OC2(c1cc([N+](=O)[O-])c(O)cc1[N+](=O)[O-])c1cc([N+](=O)[O-])c(O)cc1[N+](=O)[O-] [Example 4G]', '~ 4'),
  ('O=C(O)c1ccc2c(c1)C(=O)OC2(c1cc(Cl)c(O)c([N+](=O)[O-])c1)c1cc(Cl)c(O)c([N+](=O)[O-])c1 [Example 4H]', '~ 5.5'),
  ('O=C(O)c1ccc2c(c1)C(=O)OC2(c1ccc(O)c(O)c1)c1ccc(O)c(O)c1 [Example 4I]', '~ 7'),
  ('O=C(O)c1ccc2c(c1)C(=O)OC2(c1ccc(O)c2ccccc12)c1ccc(O)c2ccccc12 [Example 4E]', '> 10');
